- Test system: BMDCs
- method: LDH release (lytic cell death, pyroptosis) from LPS-primed BMDCs
- Assay type: cell-based, mouse
- experimental.conditions: Mus musculus, BMDC, single replicates; compound 50 μM; LPS-primed BMDCs; read-out: LDH release (% of max.)
Could you mark each record satisfied if its cytotoxicity at 50 µM falls strictly under 10%, and not satisfied if it equals or exceeds it?

molecule=Cc1cccc(-c2noc(CN3C(=O)CN(c4ccccc4)C3=O)n2)c1 category_label=satisfied
molecule=COc1ccc(NC(=O)NCc2nc(Cc3ccccc3)no2)cc1 category_label=satisfied
molecule=CC(C)Oc1ccccc1NC(=O)NCc1nc(C2CC2)no1 category_label=satisfied
molecule=O=C(Nc1ccccc1)Nc1ccc(NC(=O)c2ccoc2)cc1 category_label="not satisfied"
molecule=Cc1cc(NC(=O)Nc2ccccc2)ccc1N1CCCC1 category_label="not satisfied"

Request: Given Cc1ccc(NC(=O)NCc2nc(Cc3ccccc3)no2)cc1 , is recorded cytotoxicity at 50 µM strictly lower than 10%?
Response: satisfied

Request: Is cytotoxicity at 50 µM strictly under 10% for the entry O=C1CN(c2ccccc2)C(=O)N1Cc1nc(-c2cccs2)no1 ?
Response: satisfied

Request: Determine whether this molecule shows cytotoxicity at 50 µM lower than 10% (ties excluded): O=C(Nc1ccccc1)Nc1cccc(NC(=O)C2CCCC2)c1
Response: satisfied

Request: Decide: cytotoxicity at 50 µM of Cc1ccc(N2C(=O)C(=O)N(Cc3nc(-c4ccsc4)no3)C2=O)cc1 strictly below 10%?
Response: satisfied

Request: State whether 10% exceeds cytotoxicity at 50 µM recorded for CN1C(=O)c2ccc(NC(=O)Nc3ccccc3)cc2C1=O .
Response: not satisfied

Request: Below 10% on cytotoxicity at 50 µM? Entry COCc1cc(F)ccc1NC(=O)NC(c1nc(-c2cccnc2)no1)C(C)C (stereo not drawn)
Response: satisfied

Request: Report whether reported cytotoxicity at 50 µM is lower than 10% (strictly) for CC(C)C(NC(=O)Nc1cccc(C(F)(F)F)c1)c1nc(-c2cccnc2)no1 (stereo not drawn)
Response: satisfied

* * *

Examples of molecules with documented cytotoxicity at 80 µM follow.
- Tested on: BMDCs
- method: LDH release (lytic cell death, pyroptosis) from LPS-primed BMDCs
- Assay type: cell-based, mouse
- experimental.conditions: Mus musculus, BMDC, 80 μM; read-out: Average LDH release (% of max.)
# value in %; strip the unit string

Example entries begin here.
structure_as_smiles=O=C(Nc1ccccc1)Nc1ccc2ncc(Br)cc2c1 observed=36.4
structure_as_smiles=N#Cc1ccc(NC(=O)Nc2ccc3ncccc3c2)cc1 observed=16.7
structure_as_smiles=COc1ccc(NC(=O)Nc2ccc3ncccc3c2)cc1 observed=41.2

Now look at this entry.
Request: cytotoxicity at 80 µM for O=C(Nc1ccccc1)Nc1ccc2ncccc2n1 ?
Response: 16

* * *

- assayed.target: NLRP3 inflammasome (Mus musculus, UniProt Q8R4B8)
- Construct: endogenous in cells; host or cells: primary mouse bone marrow-derived dendritic cells (BMDCs), LPS-primed
- Sequence (Q8R4B8 whole entry): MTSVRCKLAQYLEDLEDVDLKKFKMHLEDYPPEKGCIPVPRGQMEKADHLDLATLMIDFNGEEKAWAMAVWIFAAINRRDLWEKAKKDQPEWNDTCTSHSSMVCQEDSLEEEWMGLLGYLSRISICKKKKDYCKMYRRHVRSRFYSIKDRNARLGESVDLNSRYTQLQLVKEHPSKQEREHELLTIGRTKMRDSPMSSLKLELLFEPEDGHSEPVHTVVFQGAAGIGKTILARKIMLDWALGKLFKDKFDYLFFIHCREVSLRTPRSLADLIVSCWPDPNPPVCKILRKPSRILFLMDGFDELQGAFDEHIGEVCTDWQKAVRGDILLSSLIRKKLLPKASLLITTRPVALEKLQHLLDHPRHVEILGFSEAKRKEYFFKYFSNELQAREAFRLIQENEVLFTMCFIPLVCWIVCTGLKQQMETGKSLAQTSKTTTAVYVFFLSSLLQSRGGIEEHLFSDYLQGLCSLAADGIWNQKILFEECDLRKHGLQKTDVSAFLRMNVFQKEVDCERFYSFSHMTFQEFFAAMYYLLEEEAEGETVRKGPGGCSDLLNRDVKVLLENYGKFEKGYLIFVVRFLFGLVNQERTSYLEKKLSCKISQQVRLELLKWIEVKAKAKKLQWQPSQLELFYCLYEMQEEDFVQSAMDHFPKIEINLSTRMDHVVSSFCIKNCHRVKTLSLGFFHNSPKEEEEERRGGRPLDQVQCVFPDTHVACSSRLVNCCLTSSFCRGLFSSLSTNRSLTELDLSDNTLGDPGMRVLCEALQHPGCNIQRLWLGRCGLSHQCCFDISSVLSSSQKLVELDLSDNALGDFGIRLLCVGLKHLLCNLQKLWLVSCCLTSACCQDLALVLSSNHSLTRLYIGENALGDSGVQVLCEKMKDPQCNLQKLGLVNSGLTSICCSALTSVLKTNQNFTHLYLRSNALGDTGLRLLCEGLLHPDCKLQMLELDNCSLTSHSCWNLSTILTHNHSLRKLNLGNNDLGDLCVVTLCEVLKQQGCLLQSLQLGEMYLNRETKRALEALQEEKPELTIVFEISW
- method: IL-1β release from LPS-primed BMDCs (ELISA) as readout of NLRP3 inflammasome activation
- Format: cell-based
- experimental.conditions: IL-1β; 50 μM; positive control EN22 25 μM
Each entry gets 0.0 if its Average (% positive control) stays under 1 % positive control, and 1.0 if its Average (% positive control) is 1 % positive control or above.

structure_as_smiles=O=C(NCc1ccccc1)Nc1ccc2ncccc2c1 category_label=1.0
structure_as_smiles=O=C(NCCCc1ccccc1)Nc1ccc2ncccc2c1 category_label=1.0
structure_as_smiles=O=C(NCCc1ccccc1)Nc1ccc2ncccc2c1 category_label=0.0

Then this compound:
Request: Check if Average (% positive control) >= 1 % positive control (inclusive). Item: O=C(Nc1ccc2ncccc2c1)NC1CCCCC1
Response: 1.0

* * *

- assayed.target: NLRP3 inflammasome (Mus musculus)
- Construct: endogenous in cells; host or cells: primary mouse bone marrow-derived dendritic cells (BMDCs), LPS-primed
- method: IL-1β release from LPS-primed BMDCs (ELISA) as readout of NLRP3 inflammasome activation
- Type: cell-based
- experimental.conditions: 37.5 μM
assay.endpoint: Average IL-1β (ng/mL)
The response must be a number in ng/mL with no trailing unit.

# example entries with known answers
molecule="O=C(Nc1cccc(Cl)c1)Nc1ccc([N+](=O)[O-])cc1Cl [TCMDC-143175]" observed=0.291
molecule="Cc1c(F)cccc1CN1CCCC(Cc2nc(-c3ccc(NC(=O)Nc4ccccc4)cc3)no2)C1 (stereo not shown) [PM16]" observed=0.846
molecule="O=C(Nc1ccccc1Cl)Nc1ccc([N+](=O)[O-])cc1Cl [A.C2]" observed=0.361

Request: For COc1ccc(NC(=O)Nc2ccc(-c3noc(CC4CCCN(Cc5cccc(F)c5C)C4)n3)cc2)cc1 (stereo not shown) [PM07] , what is its reported Average IL-1β?
Response: 1.594

* * *

The compounds listed here are annotated with their Average (% positive control).
- Tested on: BMDCs
- method: LDH release (lytic cell death, pyroptosis) from LPS-primed BMDCs
- Assay type: cell-based, mouse
- experimental.conditions: LDH release; compound 50 μM; positive control nigericin 5 μM
Express your answer in % positive control, writing the number without its unit.

Example entries begin here.
compound=O=C(Nc1ccccc1)Nc1ccc(NC(=O)C2CCCC2)cc1 observed=24.873
compound="CC(C)c1ccc(NC(=O)Nc2ccccc2)cc1 [L01.047, 1-phenyl-3-[4-(propan-2-yl)phenyl]urea]" observed=16.514
compound=COc1ccc(NC(=O)Nc2ccccc2)cc1Cl observed=14.776
compound=O=C(Nc1ccccc1)Nc1ccc(N2CCCC2)cc1 observed=23.074
compound=O=C1CN(c2ccccc2)C(=O)N1Cc1nc(-c2cccs2)no1 observed=10.402

Request: Would you mind telling me what Average (% positive control) value was observed for COc1cccc(C)c1NC(=O)NC(c1nc(-c2cccnc2)no1)C(C)C (stereo not shown) ?
Response: 13.256

Request: Returns the measured Average (% positive control) for the input compound. Input: O=C(Nc1ccccc1)Nc1ccc(NC2CCOCC2)cc1
Response: 12.397

Request: // returns reported Average (% positive control) for input O=C(Nc1ccccc1)Nc1cccc(NC(=O)C2CC2)c1
Response: 8.054

Request: Which Average (% positive control) is listed for CC(C)CC(NC(=O)Nc1cccc(N2CCNC2=O)c1)c1nc(-c2nnc[nH]2)no1 (stereo not shown) ?
Response: 7.822

Request: Data request, read-out Average (% positive control), for CC(C)=CC(=O)Nc1cccc(NC(=O)Nc2ccccc2)c1
Response: 10.676

Request: Consider the compound CN1C(=O)c2ccc(NC(=O)Nc3ccccc3)cc2C1=O and give its measured Average (% positive control).
Response: 16.086

Request: Suppose we examine the compound CC(C)CC(NC(=O)Nc1cccc(N2CCC(C)CC2)c1)c1nc(-c2nnc[nH]2)no1 (stereo not shown) ; what Average (% positive control) value has been reported?
Response: 11.139

* * *

- assayed.target: NLRP3 inflammasome (Mus musculus, UniProt Q8R4B8)
- Construct: endogenous in cells; host or cells: primary mouse bone marrow-derived dendritic cells (BMDCs), LPS-primed
- method: IL-1β release from LPS-primed BMDCs (ELISA) as readout of NLRP3 inflammasome activation
- Type: cell-based
- experimental.conditions: 18.75 μM
- Procedure: This was tested in cell culture in several different in vitro assays classically used to investigate inflammasome activation. […] Lytic cell death was determined via LDH release. […] For classification of the activity of a given molecule, release of IL-1β was quantified as % of IL-1% of a respective control activator used for the experiment (highlighted in tables with bold letters). […]
assay.endpoint: Average IL-1β (ng/mL)
Kindly answer with a numeric value in ng/mL, unit omitted.

compound="O=C(Nc1ccccc1Cl)Nc1ccc([N+](=O)[O-])cc1Cl [A.C2]" assay_endpoint="Average IL-1β" units_symbol=ng/mL observed=0.118
compound="Cc1c(F)cccc1CN1CCCC(Cc2nc(-c3ccc(NC(=O)Nc4ccccc4)cc3)no2)C1 (centres unmarked) [PM16]" assay_endpoint="Average IL-1β" units_symbol=ng/mL observed=0.777

Request: Tell me the measured Average IL-1β of O=C(Nc1ccccc1)Nc1ccc2ncccc2c1 [EN22, 1-phenyl-3-(quinolin-6-yl)urea] , please.
Response: 6.322

Request: So what does the record say about Average IL-1β for O=C(Nc1cccc(Cl)c1)Nc1ccc([N+](=O)[O-])cc1Cl [TCMDC-143175] ?
Response: 0.105

Request: Field request: Average IL-1β | item: COc1ccc(NC(=O)Nc2ccc(-c3noc(CC4CCCN(Cc5cccc(F)c5C)C4)n3)cc2)cc1 (centres unmarked) [PM07]
Response: 1.335

* * *

- assayed.target: NLRP3 inflammasome (Mus musculus, UniProt Q8R4B8)
- Construct: endogenous in cells; host or cells: primary mouse bone marrow-derived dendritic cells (BMDCs), LPS-primed
- method: IL-1β release from LPS-primed BMDCs (ELISA) as readout of NLRP3 inflammasome activation
- Assay type: cell-based
- experimental.conditions: IL-1β release; compound 50 μM; positive control nigericin 5 μM
- Protocol: This was tested in cell culture in several different in vitro assays classically used to investigate inflammasome activation. […] Lytic cell death was determined via LDH release. […] For classification of the activity of a given molecule, release of IL-1β was quantified as % of IL-1% of a respective control activator used for the experiment (highlighted in tables with bold letters). […]
Listed next: entries and their corresponding Average (% positive control).
Respond with the bare value in % positive control.

Record excerpt, results attached:
compound=O=C(Nc1ccccc1)Nc1ccc2c(c1)CCC2 observed=3.698
compound=Cc1ccc(NC(=O)Nc2ccccc2)cc1NC(=O)NC(C)C observed=23.826
compound="CC(C)C(NC(=O)Nc1ccc2c(c1)COC2)c1nc(-c2cccnc2)no1 (stereo not shown)" observed=1.049
compound=O=C(NCc1nc(-c2cccnc2)no1)Nc1cccc2cnccc12 observed=1.141
compound="O=C(Nc1ccccc1)Nc1ccc(NC(=O)C2CCOC2)cc1 (stereo not shown)" observed=15.216
compound="CC1Oc2ccc(NC(=O)Nc3ccccc3)cc2NC1=O (stereo not shown)" observed=36.599
compound=O=C(Nc1ccccc1)Nc1ccc(OC(F)(F)F)cc1 observed=6.360
compound=COc1ccc(NC(=O)Nc2ccccc2)cc1Cl observed=6.911
compound=CN(C)Cc1ccc(NC(=O)Nc2ccccc2)cc1 observed=0.906
compound=O=C(Nc1ccccc1)Nc1cccc(N2CCOC2=O)c1 observed=1.568

In the following, a different compound is considered.
Request: Sample O=C(Nc1cccc(Cl)c1)N1CCOCC1c1nc(-c2cccs2)no1 (stereo not shown) — what was its Average (% positive control)?
Response: 1.044

The origin of these recorded values is patent US20240277658A1.
